Target: human TLR8 (Homo sapiens)
Construct: host or cells: HEK-Blue cells
Sequence (Q9NR97 27-1041): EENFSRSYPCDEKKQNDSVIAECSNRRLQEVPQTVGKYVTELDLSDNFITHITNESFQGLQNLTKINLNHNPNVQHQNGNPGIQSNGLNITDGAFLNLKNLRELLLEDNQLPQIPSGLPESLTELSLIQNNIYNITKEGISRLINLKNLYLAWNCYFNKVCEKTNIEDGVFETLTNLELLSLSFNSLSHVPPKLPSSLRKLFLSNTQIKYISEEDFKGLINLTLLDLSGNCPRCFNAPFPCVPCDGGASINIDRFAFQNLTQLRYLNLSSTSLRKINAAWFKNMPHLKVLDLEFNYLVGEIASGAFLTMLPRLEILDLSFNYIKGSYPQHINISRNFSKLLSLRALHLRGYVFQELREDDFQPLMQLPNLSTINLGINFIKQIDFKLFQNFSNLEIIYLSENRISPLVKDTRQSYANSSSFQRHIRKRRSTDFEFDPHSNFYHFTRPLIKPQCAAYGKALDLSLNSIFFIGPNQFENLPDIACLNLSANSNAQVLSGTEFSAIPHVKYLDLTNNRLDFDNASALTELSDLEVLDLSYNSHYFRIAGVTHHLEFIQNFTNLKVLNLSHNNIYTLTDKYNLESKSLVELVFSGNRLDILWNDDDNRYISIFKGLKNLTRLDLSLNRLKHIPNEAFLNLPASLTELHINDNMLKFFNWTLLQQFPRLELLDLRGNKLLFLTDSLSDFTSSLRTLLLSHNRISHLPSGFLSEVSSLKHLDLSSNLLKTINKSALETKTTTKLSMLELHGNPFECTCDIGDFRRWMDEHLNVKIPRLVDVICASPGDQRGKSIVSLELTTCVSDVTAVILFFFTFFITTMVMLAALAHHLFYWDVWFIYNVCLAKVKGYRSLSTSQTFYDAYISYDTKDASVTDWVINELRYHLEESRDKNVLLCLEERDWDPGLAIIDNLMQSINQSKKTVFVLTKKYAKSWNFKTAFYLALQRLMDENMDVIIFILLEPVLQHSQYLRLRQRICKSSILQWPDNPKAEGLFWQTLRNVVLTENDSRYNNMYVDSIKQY
Test: TLR8 inhibition reporter assay (HEK-Blue cells, SEAP reporter)
Format: cell-based
Settings: HEK-Blue cells overexpressing human TLR8, stimulated with R848 15.9 μM, 22 hour incubation
ENDPOINT_NAME: pIC50
Give bare numbers, as −log10 of the molar value.

compound="COc1ccc(-c2cc3cnc(C4CCN(C5CCN(C(=O)c6ccccc6)CC5)CC4)cc3n2C)cc1OC [Example 26]" endpoint_name=pIC50 reported_value=5.92
compound="COc1ccc(-c2c(C)[nH]c3cnc(C4CCN(C(=O)CN5CCCCC5)CC4)cc23)cc1OC [Example 16]" endpoint_name=pIC50 reported_value=4.32
compound="Cc1nc(-c2cc(F)c(C3(O)CCN(C4CC4)CC3)cc2F)cc2c1cc(-c1ccc(S(C)(=O)=O)cc1)n2C [Example 96]" endpoint_name=pIC50 reported_value=5.39

# return pIC50 for each item in the list
1. COc1ccc(-c2cc3cnc(C4CCN(Cc5ccc(C(F)(F)F)nc5)CC4)cc3n2C)cc1OC [Example 28]
2. Cc1nc(-c2ccc(C3(O)CCN(C(C)C)CC3)cc2F)cc2c1cc(-c1ccc(S(C)(=O)=O)cc1)n2C [Example 109]
3. Cc1nc(-c2ccc(C3(O)CC4CCC(C3)N4C)c(F)c2)cc2c1cc(-c1ccc(S(C)(=O)=O)cc1)n2C (stereo not shown) [Example 102]
4. Cc1nc(-c2ccc(C3(O)CC4CCC(C3)N4CC(C)C)c(F)c2)cc2c1cc(-c1ccc(S(C)(=O)=O)cc1)n2C (stereo not shown) [Example 91]
5. COc1ccc(-c2[nH]c3cnc(-c4ccc(N5CCN(C(C)C)CC5)cc4)cc3c2C)cc1OC [Example 1]
6. CC(C)N1CCN(Cc2ccc(-c3cc4c(cc(-c5ccc(S(C)(=O)=O)cc5)n4C)c(C(C)(C)O)n3)cc2)CC1 [Example 125]
7. Cc1nc(-c2ccc(C3(O)CCN(C(C)(C)C)CC3)cc2F)cc2c1cc(-c1ccc(S(C)(=O)=O)cc1)n2C [Example 108]

1: 4.69; 2: 5.96; 3: 6.00; 4: 5.89; 5: 4.68; 6: 4.95; 7: 5.82

These measurements were taken from patent US12590091B2.
